Test system: 935938-334-R-J1-PDC complex spheroid viability;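 note: spheroids exposed to drugs for seven days before viability read; 100% = DMSO vehicle control wells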
Assay: Anticancer human tumor 935938-334-R-J1-PDC patient-derived small intestine adenocarcinoma cell line growth inhibition [POLQ]
Conditions: second compound 1 µM; first compound 0.0316 µM; hits give low values
Some compounds, each annotated with its measured viability, T/C.

CC1COCCN1c1cc(C2(O)CC3CCC(C2)O3)c2cnn(-c3ccn[nH]3)c2n1 (stereo unspecified) + Cc1cccc(N(C)C(=O)C2C(O)CCN2c2nc(C)cc(C(F)(F)F)c2C#N)c1 = 77.7%
O=C(Nc1ccc(O)c(NS(=O)(=O)c2ccc(F)cc2)c1)c1ccc(-c2ccccc2)cc1 + COC1C(OC(N)=O)C(O)C(Oc2ccc3c(O)c(NC(=O)c4ccc(O)c(CC=C(C)C)c4)c(=O)oc3c2C)OC1(C)C = 106%
CCc1c2c(nc3ccc(O)cc13)-c1cc3c(c(=O)n1C2)COC(=O)[C@]3(O)CC + Nc1ccc(C#CCN(C(=O)Cc2ncc(C(F)(F)F)cc2C(F)(F)F)c2ccc(F)cc2)nn1 = 36.1%
C#Cc1c(F)ccc2cc(O)cc(-c3ncc4c(N5CC6CCC(C5)N6)nc(OCC56CCCN5CC(F)C6)nc4c3F)c12 (stereo unspecified) + Nc1ccc(C#CCN(C(=O)Cc2ncc(C(F)(F)F)cc2C(F)(F)F)c2ccc(F)cc2)nn1 = 81.4%
CCc1c2c(nc3ccc(O)cc13)-c1cc3c(c(=O)n1C2)COC(=O)[C@]3(O)CC + Cc1cccc(N(C)C(=O)C2C(O)CCN2c2nc(C)cc(C(F)(F)F)c2C#N)c1 = 43.5%

The value of viability, T/C measured for the compound CC[C@@]1(O)C(=O)OCc2c1cc1n(c2=O)Cc2cc3c(CN(C)C)c(O)ccc3nc2-1 + Nc1ccc(C#CCN(C(=O)Cc2ncc(C(F)(F)F)cc2C(F)(F)F)c2ccc(F)cc2)nn1 turned out to be 86.7%

The value of viability, T/C measured for the compound CC(C)n1c(=O)n(C)c2cnc3cc(F)c(-c4ccc(OCCCN5CCCCC5)nc4)cc3c21 + Nc1ccc(C#CCN(C(=O)Cc2ncc(C(F)(F)F)cc2C(F)(F)F)c2ccc(F)cc2)nn1 turned out to be 120%

The value of viability, T/C measured for the compound C=CCn1c(=O)c2cnc(Nc3ccc(N4CCN(C)CC4)cc3)nc2n1-c1cccc(C(C)(C)O)n1 + Cc1cccc(N(C)C(=O)C2C(O)CCN2c2nc(C)cc(C(F)(F)F)c2C#N)c1 turned out to be 106%

The value of viability, T/C measured for the compound CCc1cc2c(N3CCc4c(cc(Cn5ccnc5)cc4-c4cn(C)nc4C(F)(F)F)C3=O)ccnc2c(OC)n1 + Cc1cccc(N(C)C(=O)C2C(O)CCN2c2nc(C)cc(C(F)(F)F)c2C#N)c1 turned out to be 98.3%

The value of viability, T/C measured for the compound O=c1[nH]cc(F)c(=O)[nH]1 + COC1C(OC(N)=O)C(O)C(Oc2ccc3c(O)c(NC(=O)c4ccc(O)c(CC=C(C)C)c4)c(=O)oc3c2C)OC1(C)C turned out to be 93%

The value of viability, T/C measured for the compound COc1cc(C2c3cc4c(cc3C(OC3OC5COC(C)OC5C(O)C3O)C3COC(=O)C23)OCO4)cc(OC)c1O (stereo unspecified) + Nc1ccc(C#CCN(C(=O)Cc2ncc(C(F)(F)F)cc2C(F)(F)F)c2ccc(F)cc2)nn1 turned out to be 83.3%
